Cited source for all entries: paper PMC10343660

# Lookup of reported melting point keyed by entry
Quick reminder: number only, in °C, skip the unit.

Examples with answers:
## Task Field request: melting point | item: O=[N+]([O-])c1ccc(-c2ccc(/C=N/Nc3nc4ccccc4s3)o2)cc1 [Compound 10]
## Result 271.9

## Task What do we get for O=C1CSC(=S)N1/N=C/c1ccc(-c2ccc([N+](=O)[O-])cc2)o1 [Compound 11] ?
## Result 175

## Task What do we get for O=[N+]([O-])c1ccc(-c2ccc(/C=N/Nc3nc4ccc(Cl)cc4o3)o2)cc1 [Compound 16] ?
## Result 190.9

Turning now to a further record.
## Task Field request: melting point | item: O=[N+]([O-])c1ccc(/C=C/C=N/Nc2nc3ccccc3s2)o1 [Compound 5]
## Result 243.1

###

test system: L. donovani intramacrophage amastigotes; assay: In vitro antileishmanial evaluation on intramacrophage amastigotes (RAW 264.7 infected, SYBR Green); format: cell-based, Leishmania donovani; settings: RAW 264.7 macrophages infected, treatment 48 h; read-out: L. donovani Intramacrophage Amastigote IC50 ± SD
endpoint: IC50 (µM)
Quick reminder: number only, in µM, skip the unit.

## Task Field request: IC50 | item: "O=C(N/N=C/c1ccc(-c2ccc([N+](=O)[O-])cc2)o1)OCc1ccccc1"
## Result 32.4

###

# Lookup of reported pIC50 keyed by entry
tested on: L. donovani intramacrophage amastigotes; experiment: In vitro antileishmanial evaluation on intramacrophage amastigotes (RAW 264.7 infected, SYBR Green); assay type: cell-based, Leishmania donovani; conditions: Leishmania donovani, RAW264.7; RAW 264.7 macrophages infected, treatment 48 h; read-out: L. donovani Intramacrophage Amastigote IC50 ± SD
# pIC50 is unitless: minus log10 of the molar concentration; print number only

## Task Field request: pIC50 | item: "O=C(N/N=C/C=C/c1ccc([N+](=O)[O-])o1)c1ccncc1"
## Result 6.30

## Task What do we get for "O=[N+]([O-])c1ccc(/C=C/C=N/Nc2nc3ccccc3s2)o1" ?
## Result 4.91

## Task What do we get for "O=[N+]([O-])c1ccc(-c2ccc(/C=N/Nc3nncc4ccccc34)o2)cc1" ?
## Result 6.52

## Task What do we get for "O=C1CSC(=S)N1/N=C/C=C/c1ccc([N+](=O)[O-])o1" ?
## Result 6.10

## Task What do we get for "O=[N+]([O-])c1ccc(-c2ccc(/C=N/Nc3cnccn3)o2)cc1" ?
## Result 4.63

## Task What do we get for "O=[N+]([O-])c1ccc(/C=C/C=N/NN2Cc3ccccc3C=N2)o1" ?
## Result 6.22

## Task What do we get for "O=[N+]([O-])c1ccc(-c2ccc(/C=N/Nc3nc4ccccc4s3)o2)cc1" ?
## Result 5.24

## Task What do we get for CCCCCCCCCCCCCCCCOP(=O)([O-])OCC[N+](C)(C)C [Miltefosine, reference compound] ?
## Result 5.66

## Task What do we get for "COc1cc(/C=N/NC(=O)c2ccncc2)ccc1O" ?
## Result 4.40

## Task What do we get for "COc1cc(/C=N/NC(=O)c2ccc(O)cc2)ccc1O" ?
## Result 5.23

## Task What do we get for "O=[N+]([O-])c1ccc(-c2ccc(/C=N/Nc3nccc(C(F)(F)F)n3)o2)cc1" ?
## Result 4.92

###

Tested on: L. donovani intramacrophage amastigotes
Assay: In vitro antileishmanial evaluation on intramacrophage amastigotes (RAW 264.7 infected, SYBR Green)
Type: cell-based, Leishmania donovani
Conditions: Leishmania donovani, RAW264.7, 48 h, read-out: L. donovani Intramacrophage Amastigote IC50 ± SD
Protocol: In vitro antileishmanial evaluation on intramacrophage amastigotes. RAW 264.7 macrophages were infected with L. donovani axenic amastigotes according to a ratio of 10 parasites per macrophage. […] The in vitro treatment was applied 24 h post-infection, and the treatment duration was 48 h. […] The activity of the compounds is expressed as IC50, calculated using the ICEstimator version 1.2 software. Miltefosine was used as the reference drug.
endpoint: IC50 (µM)
Quick reminder: number only, in µM, skip the unit.

## Task Field request: IC50 | item: "O=C(N/N=C/c1ccc(-c2ccc([N+](=O)[O-])cc2)o1)c1ccncc1"
## Result 36.2

###

# Lookup of reported melting point keyed by entry

Examples with answers:
## Task Field request: melting point | item: O=[N+]([O-])c1ccc(-c2ccc(/C=N/Nc3nncc4ccccc34)o2)cc1 [Compound 9]
## Result 239.5 to 241.5 °C

## Task What do we get for O=C(N/N=C/C=C/c1ccc([N+](=O)[O-])o1)c1ccncc1 [Compound 3] ?
## Result 252.1 to 254 °C

## Task What do we get for O=[N+]([O-])c1ccc(-c2ccc(/C=N/Nc3nccc(C(F)(F)F)n3)o2)cc1 [Compound 14] ?
## Result 212.4 to 214.2 °C

Turning now to a further record.
## Task Field request: melting point | item: O=[N+]([O-])c1ccc(-c2ccc(/C=N/Nc3cnccn3)o2)cc1 [Compound 15]
## Result 272.2 to 274 °C

###

# Lookup of reported IC50 keyed by entry
test system: L. donovani intramacrophage amastigotes; assay: In vitro antileishmanial evaluation on intramacrophage amastigotes (RAW 264.7 infected, SYBR Green); type: cell-based, Leishmania donovani; conditions: Leishmania donovani, RAW264.7; RAW 264.7 macrophages infected, treatment 48 h; read-out: L. donovani Intramacrophage Amastigote IC50 ± SD

Examples with answers:
## Task Field request: IC50 | item: O=[N+]([O-])c1ccc(-c2ccc(/C=N/Nc3ccc(Br)cn3)o2)cc1 [Compound 13]
## Result > 100 µM

## Task What do we get for O=[N+]([O-])c1ccc(-c2ccc(/C=N/Nc3nc4ccc(Cl)cc4o3)o2)cc1 [Compound 16] ?
## Result > 100 µM

Turning now to a further record.
## Task Field request: IC50 | item: O=C1CSC(=S)N1/N=C/c1ccc(-c2ccc([N+](=O)[O-])cc2)o1 [Compound 11]
## Result > 100 µM
